Provide the recorded IC50 for the entries that follow.
targetEntity: AM2 receptor (1321N1 cells transfected with CALCRL+RAMP3) (Homo sapiens, UniProt O60896+Q16602)
Construct: host or cells: 1321N1 cells
Sequence (Q16602 23-461): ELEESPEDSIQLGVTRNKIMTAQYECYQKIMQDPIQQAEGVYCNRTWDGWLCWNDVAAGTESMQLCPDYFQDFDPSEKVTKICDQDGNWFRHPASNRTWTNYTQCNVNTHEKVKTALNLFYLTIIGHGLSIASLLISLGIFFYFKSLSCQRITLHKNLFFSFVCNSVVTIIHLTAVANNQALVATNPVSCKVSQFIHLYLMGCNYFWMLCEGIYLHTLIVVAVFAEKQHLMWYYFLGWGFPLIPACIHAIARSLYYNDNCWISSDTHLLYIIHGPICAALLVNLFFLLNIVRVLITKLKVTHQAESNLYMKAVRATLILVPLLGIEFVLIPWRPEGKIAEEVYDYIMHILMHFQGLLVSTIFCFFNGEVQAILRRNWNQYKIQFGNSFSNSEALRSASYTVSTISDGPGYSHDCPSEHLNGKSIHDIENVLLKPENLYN
Sequence (O60896 24-148): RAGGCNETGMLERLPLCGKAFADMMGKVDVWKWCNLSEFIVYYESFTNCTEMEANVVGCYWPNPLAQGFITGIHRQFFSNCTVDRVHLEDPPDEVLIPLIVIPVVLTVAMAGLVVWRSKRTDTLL
assayProcedure: AM2 receptor inhibition, LANCE cAMP agonist-antagonist competition assay
Assay type: cell-based
experimentalParameters: inhibition of AM induced cAMP activation, read-out: AM2 D2 protocol: pIC50 (converted)
Dear colleague, please return just the value in nM, with no unit written.

Fill in the blank: the reported IC50 of CNCc1ccccc1CN(CC(=O)Nc1ccc2c(c1)CC1(C2)C(=O)Nc2ncccc21)C(=O)C1(C)CCN(C(C)=O)CC1 (stereo not drawn) [Example 1, 2,2,2-trifluoroacetate] is ____. 2.57

Fill in the blank: the reported IC50 of CNCc1ccccc1CN(CC(=O)Nc1ccc2c(c1)C[C@@]1(C2)C(=O)Nc2ncccc21)C(=O)C1(C)CCN(C(C)=O)C1 (stereo partly drawn) is ____. 51.3

Fill in the blank: the reported IC50 of CNCc1cc(F)ccc1CN(CC(=O)Nc1ccc2c(c1)C[C@@]1(C2)C(=O)Nc2ncccc21)C(=O)C1(C)CCNCC1 is ____. 417
